B1: DnaJ homolog subfamily C member 5, residues 16 to 77; numbered along this chain, Q9H3Z4 (parent)
chain: LYHVLGLDKNATSDDIKKSYRKLALKYHPDKNPDNPEAADKFKEINNAHAILTDATKRNIYD

# Variants of: B1
# ASSAY_TEXT: abundance fitness (aPCA) (normalised: wild type 0, dead -1); higher = more abundant; growth selection in yeast, the domain comes from the species named
# MEASUREMENT_PARAMETERS: Homo sapiens
Assignment: determine reported abundance fitness for the given variants.
Give bare numbers.

Answered examples (4):
LYHVLGLDKNATSDDIKKSYRKLALKYHPDKNPDFPEAADKFKEINNAHAILTDATKRNIYD: -0.309
LYHVLGLDKNATEDDIKKSYRKLALKYHPDKNPDNPEAADKFKEINNAHAILTDATKRNIYD: -0.023
LYHVMGLDKNATSDDIKKSYRKLALKYHPDKNPDNPEAADKFKEINNAHAILTDATKRNIYD: -0.32
LYHVLGLDKNATSDDIKKSYRKLALKYHPDKWPDNPEAADKFKEINNAHAILTDATKRNIYD: -0.179

Would you mind giving abundance fitness for every variant in the list below?
1. LYHVLGLDKNATSDDIKKSYRKLALKYHPDKNPDNPEAADKFKEINNAHAILTDATKRNIKD
2. LYHVLGLDKNATSDDIKKSYRKLALKYHPDKNPDSPEAADKFKEINNAHAILTDATKRNIYD
3. LYHVLGLDKNATSDDIKKEYRKLALKYHPDKNPDNPEAADKFKEINNAHAILTDATKRNIYD

Outgoing:
-0.174
-0.041
-0.091

Would you mind giving abundance fitness for every variant in the list below?
1. LYHVLGLDKNATSDDIKKSYRKLAFKYHPDKNPDNPEAADKFKEINNAHAILTDATKRNIYD
2. LYHVLGLDKDATSDDIKKSYRKLALKYHPDKNPDNPEAADKFKEINNAHAILTDATKRNIYD
3. LYHCLGLDKNATSDDIKKSYRKLALKYHPDKNPDNPEAADKFKEINNAHAILTDATKRNIYD
4. LYHVLGLQKNATSDDIKKSYRKLALKYHPDKNPDNPEAADKFKEINNAHAILTDATKRNIYD

Outgoing:
[-0.068, -0.343, -0.056, -0.019]

Would you mind giving abundance fitness for every variant in the list below?
1. LYHVLGLDKNATSDDIKKRYRKLALKYHPDKNPDNPEAADKFKEINNAHAILTDATKRNIYD
2. LYHVLGLDKNATSDDIKKSYRKLALKYHPDKNPDNPEAADKFKEINNAHAILTDATMRNIYD

Outgoing:
1: -0.317; 2: -0.43

Would you mind giving abundance fitness for every variant in the list below?
1. LYHVLGLDKNATSDDIKKSYRKLALKYHPDKNPDNPEQADKFKEINNAHAILTDATKRNIYD
2. LYHVLGLDKNATSDDIKKSYRKLALKYHPDKNPDNPEAAVKFKEINNAHAILTDATKRNIYD
3. LYHVLGLDKNGTSDDIKKSYRKLALKYHPDKNPDNPEAADKFKEINNAHAILTDATKRNIYD
4. LYHVLGLDKNATSDDIKKSYRKLALKYHPDKNPDNPEAADKFKEINNAHMILTDATKRNIYD
5. LYHVLGLDKNATSDDIKKSYRKLALKYHPDQNPDNPEAADKFKEINNAHAILTDATKRNIYD
6. LYHVLGLDKNATSDDIKKSYRKLALKYHPMKNPDNPEAADKFKEINNAHAILTDATKRNIYD

Outgoing:
1. -0.371
2. 0.194
3. -0.536
4. -0.087
5. -0.06
6. -0.089

Would you mind giving abundance fitness for every variant in the list below?
1. LYHVLGLDKNATSDDIKKSYRKLALKYHPDKNPDNPEAALKFKEINNAHAILTDATKRNIYD
2. LYHVLGLDKNATSDDIKKSYRKLALKYHPDKNPDNPEAADKFKEINNAHAIRTDATKRNIYD
3. LYHVLGLDKNATSDDIKKSYRKLALKYHPDKNPDNPEAADKFKIINNAHAILTDATKRNIYD

Outgoing:
1. 0.212
2. -0.479
3. -0.73

Would you mind giving abundance fitness for every variant in the list below?
1. LYHVLGLDKNATSDDIKKSYRKLALKYHPDKNPDNPEAADKFKEINNAEAILTDATKRNIYD
2. LYHVLGLDKNATSDDIKKSYRKLALKYHPDKNPDNPEAADKFKEINNAHAILTDKTKRNIYD
3. LYHVLGLDKNATSDDIKKSYRKLALKYHPDKNPDNPEAADKFKEINNAHAILTDATKRNISD
4. LYHVLGLDKNATSDDIKKSYRKLALKYHPDKNPDNPRAADKFKEINNAHAILTDATKRNIYD
5. LYHVLGLDKNATSDDIKKSYRKLQLKYHPDKNPDNPEAADKFKEINNAHAILTDATKRNIYD
6. LYHVLGLDKNATSDDIKKSYRKLALKYHPDKNPDNPEAADKFKEINNAHAILTDATERNIYD
7. LYHVLGLDKNATSDDIKKSYRKLALKYHPDKNPDNPEAADKFKEINNAHWILTDATKRNIYD
8. LYFVLGLDKNATSDDIKKSYRKLALKYHPDKNPDNPEAADKFKEINNAHAILTDATKRNIYD

Outgoing:
[-0.362, -0.002, 0.182, -0.117, -0.093, -0.023, -0.748, -0.216]

Would you mind giving abundance fitness for every variant in the list below?
1. LYHVLGLDKNATSDDRKKSYRKLALKYHPDKNPDNPEAADKFKEINNAHAILTDATKRNIYD
2. LYHVLGLDKNATSDDIKKSYRKLALKYHPDKNPDNPEAAMKFKEINNAHAILTDATKRNIYD
3. LYHVLGLDKNATSDDIKKSYRKLALKYHPDKNPDNPEPADKFKEINNAHAILTDATKRNIYD

Outgoing:
1: -0.586; 2: 0.255; 3: -0.559

Would you mind giving abundance fitness for every variant in the list below?
1. LYHVLGLDKNATSDDIKKSYRKLALKYHPDKNPDNPEAADKFKEINNNHAILTDATKRNIYD
2. LYHVLGLDKNATSDDIKKSYRKLALKYHPDKNIDNPEAADKFKEINNAHAILTDATKRNIYD
3. LYHVLGSDKNATSDDIKKSYRKLALKYHPDKNPDNPEAADKFKEINNAHAILTDATKRNIYD
4. LYHVLGLDKNATSDDIKKSYRKLALKYHPDKNPDNPEAADKFKEINNAHAILTDATPRNIYD
5. LYHVLGLDKNATSDDIKKSYRKLALKYHPDKNPDNPEAADKFKEINNAHAILMDATKRNIYD
6. LYHFLGLDKNATSDDIKKSYRKLALKYHPDKNPDNPEAADKFKEINNAHAILTDATKRNIYD

Outgoing:
1: -0.903; 2: -0.501; 3: -0.345; 4: -0.593; 5: -0.157; 6: -0.362
